Recorded values, source paper PMC9238736.

Molecular target: hKir2.2 (Homo sapiens)
Sequence (Q14500 whole entry): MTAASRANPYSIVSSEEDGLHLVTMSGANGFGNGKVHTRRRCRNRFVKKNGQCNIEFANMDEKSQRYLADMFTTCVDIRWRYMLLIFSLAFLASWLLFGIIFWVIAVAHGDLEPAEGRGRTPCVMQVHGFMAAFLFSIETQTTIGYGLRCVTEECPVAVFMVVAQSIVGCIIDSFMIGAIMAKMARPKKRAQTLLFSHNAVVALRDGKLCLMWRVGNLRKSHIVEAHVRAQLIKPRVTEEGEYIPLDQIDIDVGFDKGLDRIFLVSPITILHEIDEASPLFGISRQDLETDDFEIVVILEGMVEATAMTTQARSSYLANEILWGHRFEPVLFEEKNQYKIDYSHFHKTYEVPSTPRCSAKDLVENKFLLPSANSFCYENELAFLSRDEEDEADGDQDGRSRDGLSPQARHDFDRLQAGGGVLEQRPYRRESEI
Assay: whole-cell patch clamp, hyperpolarizing ramp
Type: cell-based
TEST READOUT: IC50 (nM)
Report the figure in nM without appending any unit label.

Exercise: Param readout= IC50; system= hKir2.2 (Homo sapiens); entry= CN(C)C(=O)C(CCN1CCC(O)(c2ccc(Cl)cc2)CC1)(c1ccccc1)c1ccccc1 [loperamide] ; returns value.
Key: 1200
